Molecular target: Serine/threonine-protein kinase B-raf (Homo sapiens, UniProt P15056, V600E)
Sequence (P15056 2-766 V600E limits assumed): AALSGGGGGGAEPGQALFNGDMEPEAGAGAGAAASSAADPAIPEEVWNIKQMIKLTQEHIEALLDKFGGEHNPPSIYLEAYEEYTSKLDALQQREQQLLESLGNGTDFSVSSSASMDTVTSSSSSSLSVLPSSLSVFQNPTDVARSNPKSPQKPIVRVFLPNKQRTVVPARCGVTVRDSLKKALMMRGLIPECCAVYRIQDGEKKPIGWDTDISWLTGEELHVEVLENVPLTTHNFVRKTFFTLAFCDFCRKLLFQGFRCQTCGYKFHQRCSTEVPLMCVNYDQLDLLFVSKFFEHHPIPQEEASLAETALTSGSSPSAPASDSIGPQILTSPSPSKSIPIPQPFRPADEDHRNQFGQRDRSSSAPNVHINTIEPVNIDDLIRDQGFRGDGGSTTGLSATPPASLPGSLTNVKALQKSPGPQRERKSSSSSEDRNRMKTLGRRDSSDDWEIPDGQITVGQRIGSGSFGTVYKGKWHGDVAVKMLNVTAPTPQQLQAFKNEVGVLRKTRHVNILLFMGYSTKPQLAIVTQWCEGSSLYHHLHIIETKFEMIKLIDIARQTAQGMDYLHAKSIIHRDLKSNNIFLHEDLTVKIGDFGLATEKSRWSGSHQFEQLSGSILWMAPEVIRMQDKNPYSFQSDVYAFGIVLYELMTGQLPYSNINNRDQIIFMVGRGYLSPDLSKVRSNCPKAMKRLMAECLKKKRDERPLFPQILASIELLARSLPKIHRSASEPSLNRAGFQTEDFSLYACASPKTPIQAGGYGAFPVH
Test: Inhibition of recombinant human GST-tagged BRAF V600E mutant expressed in baculovirus expression system
readoutKind: IC50 (nM)
API: value field is a number in nM; no unit string.

Prompt: Query for Serine/threonine-protein kinase B-raf (Homo sapiens, UniProt P15056, V600E): what IC50 does the record show for N#Cc1c(Oc2ccc(F)c(NC(=O)Cc3cccc(C(F)(F)F)c3)c2)ccc2nc(NC(=O)C3CC3)sc12 ?
Response: 2
